Test system: NRG-mice bearing LNCaP tumors
TEST_PROTOCOL: Biodistribution (and PET/SPECT imaging) in NRG-mice bearing LNCaP tumors
Type: in vivo
CONDITION_CONTEXT: 24 h p.i., Avg
PROPERTY_LABEL: Biodistribution: kidney

| COMPOUND | TARGET_UNDER_TEST | RESULT |
| --- | --- | --- |
| COc1ccc(CCCC(=O)NCC(=O)NC(CCCCNC(=O)CN2CCN(CC(=O)[O-])CCN(CC(=O)[O-])CCN(CC(=O)[O-])CC2)CC(=O)NCC2CCC(C(=O)NC(Cc3c4ccccc4cc4ccccc34)C(=O)NCCCCC(NC(=O)NC(CC(F)C(=O)O)C(=O)O)C(=O)O)CC2)cc1.[177Lu+3] (stereo not shown) [^177Lu-CCZ02019] | NRG-mice bearing LNCaP tumors | 4.02 % ID/g |
